- experimentDescription: yeast display, Sf9 membrane polyspecificity reagent, FACS + sequencing; frameworks hold sequencing errors
recordedMetric: polyreactivity (PSR sort gate)

residueCodes	testValue
QVQLVESGGGLVQAGGRLRLSCAASGSTFKSYVMGGSRQAPGKERELVAAISSGDSTYYADSVKGRFTISRDNAKNTVNLQMNSLKPEDTAVYYCAADPGYTVEPWEDDYWGQGTQVTVSS	low polyreactivity
QVQLVESGGGLVQAGGSLRLSCAASGLTFHRYAMGWYRQAPGKERELVAAINYSGGRTYYADSVKGRFTISRDNAKNTVYLQMNSLKPEDTAVYYCAAPRASGYYWGQGTQVTVSS	high polyreactivity
QVQLVESGGGLVQAGGSLRLSCAASGSIFAINVMGWYRQAPGKEREFVAAISVRSGSTYYADSVKGRFTISRDNAKNTVYLQMNSLKPEDTAVYYCARDSYYIGRWLYYWGQGTQVTVSS	high polyreactivity
QVQLVESGGGLVQAGGSLRLTCAASGLTFPVYAKGWYRQAPGKEREFVAAISYSAGRTYYADSVKGRFTISRDNAKNTVYLQMNRLKPEDTAVYYCAAATYYSIYDYWGQGTQVTVSS	high polyreactivity
QVQLVESGGGLVQAGGTLRLSCAASGRIFSKNAMGWYRQAPGKERELVARIRWTGGITYYADSVKGRFTISRDNAKNTVYLQMNSLKPEDTAVYYCAAGSYAGFAVIGYYYWGQGTQVTVSS	low polyreactivity
